# testSystem: human GPC3 (Glypican-3) (human, UniProt P51654 25-580)
# Sequence (P51654 25-580, form in doubt): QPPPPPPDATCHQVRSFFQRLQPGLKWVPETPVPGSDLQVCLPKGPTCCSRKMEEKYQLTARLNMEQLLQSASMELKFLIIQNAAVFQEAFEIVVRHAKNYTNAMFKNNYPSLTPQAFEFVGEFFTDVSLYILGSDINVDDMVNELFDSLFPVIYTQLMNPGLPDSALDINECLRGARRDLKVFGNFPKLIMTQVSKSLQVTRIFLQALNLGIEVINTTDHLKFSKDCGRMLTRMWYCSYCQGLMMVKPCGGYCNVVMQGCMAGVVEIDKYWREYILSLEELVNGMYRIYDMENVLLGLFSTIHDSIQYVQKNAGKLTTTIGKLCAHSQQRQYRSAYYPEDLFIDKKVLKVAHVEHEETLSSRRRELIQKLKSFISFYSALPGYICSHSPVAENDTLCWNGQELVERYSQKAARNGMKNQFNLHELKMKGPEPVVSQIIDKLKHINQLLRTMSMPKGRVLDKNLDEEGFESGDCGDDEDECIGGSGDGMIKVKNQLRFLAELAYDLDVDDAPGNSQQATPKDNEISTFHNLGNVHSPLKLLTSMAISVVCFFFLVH
# measurementNotes: cell-based or functional assay
propertyMeasured: EC50 value of cell killing activity in Huh7 cells (ng/mL)

[
  {
    "binder": "Hu 52H5D3B8-8-mcc-AAQ-Exatecan (ADC-6) (antibody, human IgG1, kappa, DAR 4.0, V domains shown, mcc-AAQ-Exatecan on cysteine thiols freed by partial reduction of interchain disulfide bonds; DAR 4.0 for the whole antibody; positions not given) VH: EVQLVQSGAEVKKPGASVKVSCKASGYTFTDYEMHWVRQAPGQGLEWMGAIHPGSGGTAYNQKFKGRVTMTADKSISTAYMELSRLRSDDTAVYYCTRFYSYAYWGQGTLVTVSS VL: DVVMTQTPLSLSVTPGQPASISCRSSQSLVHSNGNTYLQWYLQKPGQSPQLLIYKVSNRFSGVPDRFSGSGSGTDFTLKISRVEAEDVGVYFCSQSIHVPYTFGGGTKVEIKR",
    "unitsOfMeasure": "ng/mL",
    "numericValue": 30.6
  },
  {
    "binder": "Hu 52H5D3B8-8-mcc-AAN-Exatecan (ADC-2) (antibody, human IgG1, kappa, DAR 8.0, V domains shown, mcc-AAN-Exatecan on cysteine thiols freed by reduction of interchain disulfide bonds; DAR 8.0 for the whole antibody; positions not given, also called Hu 52H5D3B8-8-MCC-AAN-Exa (ADC-2)) VH: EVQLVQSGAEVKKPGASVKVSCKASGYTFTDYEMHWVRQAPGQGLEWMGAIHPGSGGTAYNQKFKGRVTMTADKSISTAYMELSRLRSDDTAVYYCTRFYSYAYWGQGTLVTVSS VL: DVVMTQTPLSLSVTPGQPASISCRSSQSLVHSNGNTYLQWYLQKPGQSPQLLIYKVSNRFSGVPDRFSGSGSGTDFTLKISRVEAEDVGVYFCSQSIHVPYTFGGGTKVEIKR",
    "unitsOfMeasure": "ng/mL",
    "numericValue": 9.39
  },
  {
    "binder": "Hu 52H5D3B8-8-MCC-AAAAQ-Exatecan (ADC-9) (antibody, human IgG1, kappa, DAR 8.0, V domains shown, mcc-Ala-Ala-Ala-Ala-Gln-Exatecan on cysteine thiols freed by reduction of interchain disulfide bonds; DAR 8.0 for the whole antibody; positions not given) VH: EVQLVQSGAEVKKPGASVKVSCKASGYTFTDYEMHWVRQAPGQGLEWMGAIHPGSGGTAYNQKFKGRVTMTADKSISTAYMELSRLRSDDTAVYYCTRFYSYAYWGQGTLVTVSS VL: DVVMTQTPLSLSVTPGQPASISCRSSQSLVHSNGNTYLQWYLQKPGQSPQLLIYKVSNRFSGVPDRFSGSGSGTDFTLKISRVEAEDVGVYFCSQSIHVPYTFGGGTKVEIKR",
    "unitsOfMeasure": "ng/mL",
    "numericValue": 4.78
  },
  {
    "binder": "Hu 52H5D3B8-8-mc-AAN-Exatecan (ADC-1) (antibody, human IgG1, kappa, DAR 8.0, V domains shown, mc-AAN-Exatecan on cysteine thiols freed by reduction of interchain disulfide bonds; DAR 8.0 for the whole antibody; positions not given, also called Hu 52H5D3B8-8-MC-AAN-Exa (ADC-1)) VH: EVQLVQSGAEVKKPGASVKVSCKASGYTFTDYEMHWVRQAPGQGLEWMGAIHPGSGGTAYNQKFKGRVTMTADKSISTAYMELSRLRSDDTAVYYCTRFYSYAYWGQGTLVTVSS VL: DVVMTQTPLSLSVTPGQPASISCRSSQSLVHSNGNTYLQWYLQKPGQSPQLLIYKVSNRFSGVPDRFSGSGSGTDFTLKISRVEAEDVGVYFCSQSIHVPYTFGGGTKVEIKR",
    "unitsOfMeasure": "ng/mL",
    "numericValue": 3.59
  },
  {
    "binder": "Hu 52H5D3B8-8-mc-AAQ-Exatecan (ADC-3) (antibody, human IgG1, kappa, DAR 8.0, V domains shown, mc-AAQ-Exatecan on cysteine thiols freed by reduction of interchain disulfide bonds; DAR 8.0 for the whole antibody; positions not given, also called Hu 52H5D3B8-8-MC-AAQ-Exa (ADC-3)) VH: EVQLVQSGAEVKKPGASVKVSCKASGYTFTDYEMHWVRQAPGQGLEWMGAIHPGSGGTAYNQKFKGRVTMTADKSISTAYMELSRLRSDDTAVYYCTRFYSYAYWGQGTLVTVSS VL: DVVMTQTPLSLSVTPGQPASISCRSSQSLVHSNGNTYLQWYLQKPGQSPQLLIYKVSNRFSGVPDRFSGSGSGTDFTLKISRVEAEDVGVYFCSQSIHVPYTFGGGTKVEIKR",
    "unitsOfMeasure": "ng/mL",
    "numericValue": 11.9
  }
]
